Kindly supply the reported PBM binding z-score values for the records listed here.
# System: RARa:RXR (NR concentration 270 nM, RXRa partner concentration 90 nM)
# assayNotes: PBM binding z-score (relative to random genomic background probes); higher = stronger binding; sequences stand for … in GC…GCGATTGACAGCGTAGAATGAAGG
Number only, no unit.

response.value for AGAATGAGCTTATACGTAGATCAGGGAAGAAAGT (field: PBM binding z-score) = -0.221

The sequence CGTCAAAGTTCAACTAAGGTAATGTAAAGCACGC showed PBM binding z-score equal to 4.17

The value of PBM binding z-score measured for the sequence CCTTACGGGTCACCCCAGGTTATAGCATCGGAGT turned out to be 4.43

Entry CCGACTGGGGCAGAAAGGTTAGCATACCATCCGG , PBM binding z-score reported as 0.634

Reported PBM binding z-score of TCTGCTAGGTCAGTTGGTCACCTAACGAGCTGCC : 0.734

Lab book: PBM binding z-score of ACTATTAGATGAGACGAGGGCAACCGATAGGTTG noted as 0.634

* * *

# Tested on: RXRa homodimer (NR concentration 180 nM)
# assayNotes: PBM binding z-score (relative to random genomic background probes); higher = stronger binding; sequences stand for … in GC…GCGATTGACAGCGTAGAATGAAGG
measurementType: PBM binding z-score
No unit in the answer, please; the number alone is enough.

Documented PBM binding z-score of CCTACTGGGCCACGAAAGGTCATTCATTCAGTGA : 5.17

# sequence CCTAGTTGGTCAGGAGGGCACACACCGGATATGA ; its PBM binding z-score = 0.657

PBM binding z-score reading for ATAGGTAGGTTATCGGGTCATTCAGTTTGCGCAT : 3.29

The sequence identified as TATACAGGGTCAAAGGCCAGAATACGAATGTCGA registered its PBM binding z-score at 6.99

Lab note: measured PBM binding z-score of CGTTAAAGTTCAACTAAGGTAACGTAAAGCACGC was 4.25

# sequence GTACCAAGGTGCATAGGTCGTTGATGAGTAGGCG ; its PBM binding z-score = 1.3

Form: sequence = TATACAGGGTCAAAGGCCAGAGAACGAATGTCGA ; PBM binding z-score = 7.14

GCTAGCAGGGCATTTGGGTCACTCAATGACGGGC has a reported PBM binding z-score of 1.16

Notebook: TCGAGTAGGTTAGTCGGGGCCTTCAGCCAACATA , PBM binding z-score read as -0.278

Kindly note the recorded PBM binding z-score for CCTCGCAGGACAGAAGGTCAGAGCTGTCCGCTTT , which is 1.74

The sequence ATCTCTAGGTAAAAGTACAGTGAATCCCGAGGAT showed PBM binding z-score equal to 0.199

The reported PBM binding z-score of the sequence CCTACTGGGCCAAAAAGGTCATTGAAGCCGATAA was 5.31

Just so you know, measured PBM binding z-score for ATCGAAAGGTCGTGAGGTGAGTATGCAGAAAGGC came out at 5.27

// PBM binding z-score lookup, sequence = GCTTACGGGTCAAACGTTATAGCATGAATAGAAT , result: 5.6

Record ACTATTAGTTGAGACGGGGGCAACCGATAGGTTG , field PBM binding z-score: 1.42

For record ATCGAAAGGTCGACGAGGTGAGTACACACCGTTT the listed PBM binding z-score is 4.5

# sequence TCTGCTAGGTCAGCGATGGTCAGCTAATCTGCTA ; its PBM binding z-score = 1.25

The reported PBM binding z-score of the sequence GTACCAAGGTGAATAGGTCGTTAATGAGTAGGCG was 1.7

// recorded PBM binding z-score for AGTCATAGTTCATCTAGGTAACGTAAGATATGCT : 2.02

// recorded PBM binding z-score for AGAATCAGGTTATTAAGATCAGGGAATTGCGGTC : 0.596

* * *

Please go through the items and note down their PBM binding z-score.
# Tested on: PXR:RXRa (NR concentration 270 nM, RXRa partner concentration 90 nM)
# assayNotes: PBM binding z-score (relative to random genomic background probes); higher = stronger binding; sequences stand for … in GC…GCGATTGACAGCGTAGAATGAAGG
Respond using a number only.

Record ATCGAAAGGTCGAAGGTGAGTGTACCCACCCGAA , field PBM binding z-score: 3.07

Quick note, PBM binding z-score for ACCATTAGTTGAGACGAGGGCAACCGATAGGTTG landed at 1.5

// field: PBM binding z-score; key: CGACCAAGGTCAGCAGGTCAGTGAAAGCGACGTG ; value = 3.18

Summary for this sequence, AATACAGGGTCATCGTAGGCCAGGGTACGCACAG : PBM binding z-score is 4.84

The reported PBM binding z-score of the sequence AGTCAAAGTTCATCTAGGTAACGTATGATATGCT was 5.12

Query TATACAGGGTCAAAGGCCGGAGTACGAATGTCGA yields PBM binding z-score of 3.97

Input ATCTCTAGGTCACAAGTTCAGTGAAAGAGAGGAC . Output PBM binding z-score: 3.7

Field PBM binding z-score (entry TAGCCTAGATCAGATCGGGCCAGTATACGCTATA ) reads -0.794

So for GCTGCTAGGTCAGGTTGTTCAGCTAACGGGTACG , the logged PBM binding z-score turned out to be 0.34

Summary for this sequence, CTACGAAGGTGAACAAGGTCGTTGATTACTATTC : PBM binding z-score is 2.98

* * *

Please provide measured PBM binding z-score for the entries that follow.
# System: PPARg:RXRa 30nM:10nM, anti-RXR (NR concentration 30 nM, RXRa partner concentration 10 nM)
# assayNotes: PBM binding z-score (relative to random genomic background probes); higher = stronger binding; sequences stand for … in GC…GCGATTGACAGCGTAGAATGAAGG
Please reply with the value in numeric form only.

Value of measured PBM binding z-score for the entry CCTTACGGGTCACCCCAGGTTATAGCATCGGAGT : 1.22

PBM binding z-score in this record for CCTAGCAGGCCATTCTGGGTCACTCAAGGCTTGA : -0.704

The reported PBM binding z-score of the sequence GGTACGAGGGCATTCGAGTTGATAGCATGGCGAT was -0.638

Form field PBM binding z-score, entry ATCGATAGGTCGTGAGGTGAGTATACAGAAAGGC : 0.506

Just so you know, measured PBM binding z-score for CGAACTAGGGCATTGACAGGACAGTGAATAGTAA came out at 0.522

Lab book: PBM binding z-score of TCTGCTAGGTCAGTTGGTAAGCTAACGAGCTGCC noted as 1.04

The sequence listed as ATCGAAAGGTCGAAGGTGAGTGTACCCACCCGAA has a reported PBM binding z-score of 2.15

Lab book: PBM binding z-score of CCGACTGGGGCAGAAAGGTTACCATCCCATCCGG noted as 0.448

For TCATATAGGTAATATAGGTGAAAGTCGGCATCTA the sequence record lists PBM binding z-score as 4.1

// sample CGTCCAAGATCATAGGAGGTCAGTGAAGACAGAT , its PBM binding z-score was 0.251

Record summary for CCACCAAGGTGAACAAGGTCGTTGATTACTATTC : reported PBM binding z-score = -0.313

Recorded PBM binding z-score (sequence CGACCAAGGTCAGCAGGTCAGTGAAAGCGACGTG ): 1.12

Documented PBM binding z-score of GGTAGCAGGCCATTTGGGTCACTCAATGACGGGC : -0.356

For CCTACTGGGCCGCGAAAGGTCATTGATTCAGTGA the sequence record lists PBM binding z-score as 0.701

Recorded result, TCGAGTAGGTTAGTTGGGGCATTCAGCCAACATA , PBM binding z-score: 0.877

// PBM binding z-score value for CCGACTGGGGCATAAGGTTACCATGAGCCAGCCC : 1.36

For this sequence ( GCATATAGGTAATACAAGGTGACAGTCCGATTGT ), measured PBM binding z-score is 0.699

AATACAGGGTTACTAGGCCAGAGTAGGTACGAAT has a reported PBM binding z-score of 1.52

PBM binding z-score recorded for this sequence, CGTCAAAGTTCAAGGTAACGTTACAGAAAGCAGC , is 2.28

Entry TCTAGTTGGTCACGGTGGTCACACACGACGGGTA — recorded PBM binding z-score = 3.17

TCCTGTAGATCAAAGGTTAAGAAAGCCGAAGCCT yielded PBM binding z-score of 8.09

The measured PBM binding z-score associated with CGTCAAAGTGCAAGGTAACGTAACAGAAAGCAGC reads -0.0711

Per the records, this sequence ( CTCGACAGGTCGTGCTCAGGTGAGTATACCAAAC ) has PBM binding z-score equal to -0.386

// PBM binding z-score value for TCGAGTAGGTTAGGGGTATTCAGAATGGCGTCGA : 2.28

The reported numbers originate from the supplement of paper PMC6555819.
